- tested-system: PIK3CG (human) (UniProt P48736)
- Sequence (P48736 whole entry, looked up): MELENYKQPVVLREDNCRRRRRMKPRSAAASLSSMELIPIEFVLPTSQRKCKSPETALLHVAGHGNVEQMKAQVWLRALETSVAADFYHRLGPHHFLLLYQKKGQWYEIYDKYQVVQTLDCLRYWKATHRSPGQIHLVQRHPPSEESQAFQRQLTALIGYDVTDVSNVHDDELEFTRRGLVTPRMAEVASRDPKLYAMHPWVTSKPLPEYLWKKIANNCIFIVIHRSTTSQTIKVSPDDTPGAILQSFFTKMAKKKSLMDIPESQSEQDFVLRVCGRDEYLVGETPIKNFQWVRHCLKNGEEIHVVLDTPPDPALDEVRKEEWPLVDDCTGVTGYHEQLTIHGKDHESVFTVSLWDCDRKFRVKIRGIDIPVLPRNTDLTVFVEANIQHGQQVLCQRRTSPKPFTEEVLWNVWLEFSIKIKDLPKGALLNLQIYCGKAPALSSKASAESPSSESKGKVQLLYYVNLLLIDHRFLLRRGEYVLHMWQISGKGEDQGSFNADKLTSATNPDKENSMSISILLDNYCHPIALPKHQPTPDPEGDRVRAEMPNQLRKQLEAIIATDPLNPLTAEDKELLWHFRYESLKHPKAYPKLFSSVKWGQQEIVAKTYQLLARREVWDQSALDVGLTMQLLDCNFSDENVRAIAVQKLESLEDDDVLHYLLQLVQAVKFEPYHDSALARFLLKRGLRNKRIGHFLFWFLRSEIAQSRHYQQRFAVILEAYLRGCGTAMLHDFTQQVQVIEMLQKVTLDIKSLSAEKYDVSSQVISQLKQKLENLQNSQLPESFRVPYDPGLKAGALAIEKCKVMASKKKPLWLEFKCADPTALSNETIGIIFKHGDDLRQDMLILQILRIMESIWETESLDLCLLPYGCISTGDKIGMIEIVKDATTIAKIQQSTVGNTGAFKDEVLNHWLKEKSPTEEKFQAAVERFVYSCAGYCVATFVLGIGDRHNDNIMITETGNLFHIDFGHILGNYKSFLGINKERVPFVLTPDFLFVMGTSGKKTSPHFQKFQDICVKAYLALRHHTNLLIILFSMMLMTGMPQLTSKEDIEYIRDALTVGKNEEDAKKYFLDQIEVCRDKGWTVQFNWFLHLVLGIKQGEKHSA
- assay-details: Enzyme Assay
Recorded IC50 for the following compounds

Examples with their reported IC50 follow.
smiles-str | IC50
C[C@H](NC(=O)c1nccnc1N)c1nc2cccc(Cl)c2c(=O)n1-c1ccccc1 | 0.1 to 1 µM
C[C@H](NC(=O)c1c(N)nn2cccnc12)c1nn2ccc(Cl)c2c(=O)n1-c1ccccc1 | ≥ 10 µM
COc1cccc2c(Br)c([C@H](C)NC(=O)c3c(N)nn4cccnc34)n(-c3ccccc3)c(=O)c12 | 0.1 to 1 µM
CC(=O)NCC#Cc1cccc2cc([C@H](C)NC(=O)c3c(N)nn4cccnc34)n(-c3ccccc3)c(=O)c12 | < 0.1 µM
C[C@H](NC(=O)c1c(N)nn2cccnc12)c1nn2ccc(-c3cnn(C)c3)c2c(=O)n1-c1ccccc1 | ≥ 10 µM

# IC50 lookup, item Cc1ccn2nc(N)c(C(=O)N[C@@H](C)c3cc4cccc(Cl)c4c(=O)n3-c3ccccc3)c2n1
0.1 to 1 µM

# IC50 lookup, item C[C@H](NC(=O)c1nc(-c2cccc(S(=O)(=O)NC(C)(C)C)c2)cnc1N)c1cc2cccc(Cl)c2c(=O)n1-c1ccccc1
0.1 to 1 µM
